Target: hENPP2 (UniProtKB/SwissProt Q13822) (Homo sapiens (Human), UniProt Q13822)
Experiment: hENPP2 biochemical assay, LPC as substrate
Conditions: LPC (palmitoyl 16:0) as substrate
IC50 values by entry

These recorded examples may help you get a feel for the data.
Name the recorded IC50 of the compound listed here: CCc1nc2ccc(N3CCN(C(=O)CCCN(C)C)CC3)cn2c1N(C)c1nc(-c2ccc(F)cc2)cs1 [Compound 53]
> 1 µM

Name the recorded IC50 of the compound listed here: CCc1nc2ccc(C3=NC(CO)CO3)cn2c1N(C)c1nc(-c2ccc(F)cc2)cs1 (stereo not shown) [Compound 239]
> 1 µM

Name the recorded IC50 of the compound listed here: CCc1nc2ccc(C3=CCN(S(C)(=O)=O)CC3)cn2c1N(C)c1nc(-c2ccc(C(C)(C)C)cc2)cs1 [Compound 70]
> 1 µM

More entries:
Name the recorded IC50 of the compound listed here: CCc1nc2ccc(N3CCN(CC(=O)N4CC(F)C4)CC3)cn2c1N(C)c1nc(-c2ccc(F)cc2)cs1 [Compound 28]
0.1 to 0.5 µM

Name the recorded IC50 of the compound listed here: CCc1nc2ccc(N3CCN(S(C)(=O)=O)CC3)cn2c1N(C)c1nc(-c2ccc(F)cc2)cs1 [Compound 54]
0.5 to 1 µM

Name the recorded IC50 of the compound listed here: CCc1nc2ccc(C3CCN(C(=O)OC(C)(C)C)CC3)cn2c1N(C)c1nc(-c2ccc(F)cc2)cs1 [Compound 219]
> 1 µM

Name the recorded IC50 of the compound listed here: CCc1nc2ccc(C3CCN(S(C)(=O)=O)CC3)cn2c1N(C)c1nc(-c2ccc(F)cc2Cl)cs1 [Compound 99]
> 1 µM
